- target_under_test: 14-3-3γ (Homo sapiens, UniProt P61981)
- Construct: made in house; host or cells: E. coli NiCo21 (DE3)
- Sequence (P61981 whole entry): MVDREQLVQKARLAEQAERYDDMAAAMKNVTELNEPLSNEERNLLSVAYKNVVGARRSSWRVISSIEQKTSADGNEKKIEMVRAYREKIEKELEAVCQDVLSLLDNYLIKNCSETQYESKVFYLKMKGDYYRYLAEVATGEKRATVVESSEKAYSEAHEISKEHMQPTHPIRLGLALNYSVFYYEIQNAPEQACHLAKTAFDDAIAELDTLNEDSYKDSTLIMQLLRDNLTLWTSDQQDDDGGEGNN
- measurement_notes: Fluorescence anisotropy (FA) binary binding study: 14-3-3 titrated to fluorescein-labelled peptide
- measurement_setup: Table S3; ΔG minus ΔG of previous peptide, FA; replicate 3
Where a SMILES comes first, the peptide text is derived from it. [ ]: non-standard residue; d: D form. The star is where a group is joined. ξ: configuration not given here. FITC = O=C1OC2(c3ccc(O)cc3Oc3cc(O)ccc32)c2ccc(NC(=S)*)cc21; Phe(4-NO2) = N[C@@H](Cc1ccc([N+](=O)[O-])cc1)C(=O)O; ξAla(4-thiazolyl) = NC(Cc1cscn1)C(=O)O; pS = N[C@@H](COP(=O)(O)O)C(=O)O; β3hS = N[C@@H](CO)CC(=O)O; Nva = CCC[C@H](N)C(=O)O; AEA = NCCOCC(=O)O; βAla = NCCC(=O)O
Measured ΔΔG (to previous) accompanies every entry in the list below.
measured_property: ΔΔG (to previous)

>>> reading("CCC[C@H](NC(=O)[C@@H](CCCCN)NC(=O)COCCNC(=S)Nc1ccc2c(c1)C(=O)OC21c2ccc(O)cc2Oc2cc(O)ccc21)C(=O)N[C@@H](Cc1ccc([N+](=O)[O-])cc1)C(=O)NC(Cc1cscn1)C(=O)N[C@@H](COP(=O)(O)O)C(N)=O (some centres unmarked) [2i] ({FITC-AEA}-[dK][Nva][Phe(4-NO2)][ξAla(4-thiazolyl)][pS]-NH2)")
"0,87 kcal/mol"
>>> reading("CCC[C@H](NC(=O)[C@@H](CCCCN)NC(=O)COCCNC(=S)Nc1ccc2c(c1)C(=O)OC21c2ccc(O)cc2Oc2cc(O)ccc21)C(=O)N[C@@H](Cc1ccc([N+](=O)[O-])cc1)C(=O)NC(Cc1cscn1)C(=O)N[C@@H](COP(=O)(O)O)C(=O)N[C@@H](Cc1ccc([N+](=O)[O-])cc1)C(=O)N[C@@H](CO)CC(=O)NCCC(=O)N[C@@H](Cc1ccc([N+](=O)[O-])cc1)C(N)=O (stereo partly drawn) [2e] ({FITC-AEA}-[dK][Nva][Phe(4-NO2)][ξAla(4-thiazolyl)][pS][Phe(4-NO2)][β3hS][βAla][Phe(4-NO2)]-NH2)")
"0,82 kcal/mol"

====

- target_under_test: 14-3-3γ (Homo sapiens)
- Construct: made in house; host or cells: E. coli NiCo21 (DE3)
- measurement_notes: Isothermal titration calorimetry (ITC) of 14-3-3 binding to peptide
- measurement_setup: Table S5; ITC, 25 °C; replicate 1
Where a SMILES comes first, the peptide text is derived from it. [ ]: non-standard residue; d: D form. ξ: configuration not given here. Phe(4-NO2) = N[C@@H](Cc1ccc([N+](=O)[O-])cc1)C(=O)O; ξAla(4-thiazolyl) = NC(Cc1cscn1)C(=O)O; pS = N[C@@H](COP(=O)(O)O)C(=O)O; β3hS = N[C@@H](CO)CC(=O)O; Nva = CCC[C@H](N)C(=O)O; ξβ3hS = NC(CO)CC(=O)O; βAla = NCCC(=O)O
measured_property: ΔG

>>> reading("CCC[C@H](NC(=O)[C@H](N)CCCCN)C(=O)N[C@@H](Cc1ccc([N+](=O)[O-])cc1)C(=O)N[C@@H](C)C(=O)N[C@@H](COP(=O)(O)O)C(=O)N[C@@H](Cc1ccc([N+](=O)[O-])cc1)C(=O)N[C@@H](CO)CC(=O)NCCC(=O)N[C@@H](Cc1ccc([N+](=O)[O-])cc1)C(=O)N[C@@H](CCCCN)C(N)=O [3a] (H-[dK][Nva][Phe(4-NO2)]A[pS][Phe(4-NO2)][β3hS][βAla][Phe(4-NO2)]K-NH2; N-terminus and C-terminus assumed)")
"-40.2 kJ/mol"
>>> reading("CCC[C@H](NC(=O)[C@H](N)CCCCN)C(=O)N[C@@H](Cc1ccc([N+](=O)[O-])cc1)C(=O)NC(Cc1cscn1)C(=O)N[C@@H](COP(=O)(O)O)C(=O)N[C@@H](Cc1ccc([N+](=O)[O-])cc1)C(=O)NC(CO)CC(=O)NCCC(=O)N[C@@H](Cc1ccc([N+](=O)[O-])cc1)C(=O)N[C@@H](CCCCN)C(N)=O (stereo partly drawn) [compound 1] (H-[dK][Nva][Phe(4-NO2)][ξAla(4-thiazolyl)][pS][Phe(4-NO2)][ξβ3hS][βAla][Phe(4-NO2)]K-NH2)")
"-41.8 kJ/mol"
>>> reading("CCC[C@H](NC(=O)[C@H](N)CCCCN)C(=O)N[C@@H](Cc1ccc([N+](=O)[O-])cc1)C(=O)NC(Cc1cscn1)C(=O)N[C@@H](COP(=O)(O)O)C(=O)N[C@@H](C)C(=O)N[C@@H](CO)CC(=O)NCCC(=O)N[C@@H](Cc1ccc([N+](=O)[O-])cc1)C(=O)N[C@@H](CCCCN)C(N)=O (stereo partly drawn) [4c] (H-[dK][Nva][Phe(4-NO2)][ξAla(4-thiazolyl)][pS]A[β3hS][βAla][Phe(4-NO2)]K-NH2; N-terminus and C-terminus assumed)")
"-35.1 kJ/mol"

====

Measured ΔG accompanies every entry in the list below.
- target_under_test: 14-3-3γ (Homo sapiens, UniProt P61981)
- Construct: made in house; host or cells: E. coli NiCo21 (DE3)
- measurement_notes: Fluorescence anisotropy (FA) binary binding study: 14-3-3 titrated to fluorescein-labelled peptide
- measurement_setup: Table S3; calculated from FA KD; mean of n = 3
Where a SMILES comes first, the peptide text is derived from it. [ ]: non-standard residue; d: D form. The star is where a group is joined. ξ: configuration not given here. FITC = O=C1OC2(c3ccc(O)cc3Oc3cc(O)ccc32)c2ccc(NC(=S)*)cc21; Phe(4-NO2) = N[C@@H](Cc1ccc([N+](=O)[O-])cc1)C(=O)O; ξAla(4-thiazolyl) = NC(Cc1cscn1)C(=O)O; pS = N[C@@H](COP(=O)(O)O)C(=O)O; β3hS = N[C@@H](CO)CC(=O)O; Nva = CCC[C@H](N)C(=O)O; AEA = NCCOCC(=O)O; βAla = NCCC(=O)O
measured_property: ΔG

>>> reading("CCC[C@H](NC(=O)[C@@H](CCCCN)NC(=O)COCCNC(=S)Nc1ccc2c(c1)C(=O)OC21c2ccc(O)cc2Oc2cc(O)ccc21)C(=O)N[C@@H](Cc1ccc([N+](=O)[O-])cc1)C(=O)NC(Cc1cscn1)C(=O)N[C@@H](COP(=O)(O)O)C(=O)N[C@@H](Cc1ccc([N+](=O)[O-])cc1)C(=O)N[C@@H](CO)CC(=O)NCCC(=O)N[C@@H](Cc1ccc([N+](=O)[O-])cc1)C(N)=O (stereo partly drawn) [2e] ({FITC-AEA}-[dK][Nva][Phe(4-NO2)][ξAla(4-thiazolyl)][pS][Phe(4-NO2)][β3hS][βAla][Phe(4-NO2)]-NH2)")
"-9,53 kcal/mol"
>>> reading("CCC[C@H](NC(=O)[C@@H](CCCCN)NC(=O)COCCNC(=S)Nc1ccc2c(c1)C(=O)OC21c2ccc(O)cc2Oc2cc(O)ccc21)C(=O)N[C@@H](Cc1ccc([N+](=O)[O-])cc1)C(=O)NC(Cc1cscn1)C(=O)N[C@@H](COP(=O)(O)O)C(=O)N[C@@H](Cc1ccc([N+](=O)[O-])cc1)C(N)=O (stereo partly drawn) [2h] ({FITC-AEA}-[dK][Nva][Phe(4-NO2)][ξAla(4-thiazolyl)][pS][Phe(4-NO2)]-NH2)")
"-7,04 kcal/mol"
>>> reading("CCC[C@H](NC(=O)[C@@H](CCCCN)NC(=O)COCCNC(=S)Nc1ccc2c(c1)C(=O)OC21c2ccc(O)cc2Oc2cc(O)ccc21)C(=O)N[C@@H](Cc1ccc([N+](=O)[O-])cc1)C(=O)NC(Cc1cscn1)C(=O)N[C@@H](COP(=O)(O)O)C(=O)N[C@@H](Cc1ccc([N+](=O)[O-])cc1)C(=O)N[C@@H](CO)CC(=O)NCCC(N)=O (stereo partly drawn) [2f] ({FITC-AEA}-[dK][Nva][Phe(4-NO2)][ξAla(4-thiazolyl)][pS][Phe(4-NO2)][β3hS][βAla]-NH2)")
"-8,04 kcal/mol"

====

- target_under_test: 14-3-3γ (Homo sapiens, UniProt P61981)
- Construct: made in house; host or cells: E. coli NiCo21 (DE3)
- measurement_notes: Fluorescence anisotropy (FA) binary binding study: 14-3-3 titrated to fluorescein-labelled peptide
- measurement_setup: Table S4; ΔG of peptide minus ΔG of 1, FA; mean of n = 3
Where a SMILES comes first, the peptide text is derived from it. [ ]: non-standard residue; d: D form. ξ: configuration not given here. Phe(4-NO2) = N[C@@H](Cc1ccc([N+](=O)[O-])cc1)C(=O)O; ξAla(4-thiazolyl) = NC(Cc1cscn1)C(=O)O; pS = N[C@@H](COP(=O)(O)O)C(=O)O; β3hS = N[C@@H](CO)CC(=O)O; Nva = CCC[C@H](N)C(=O)O; βAla = NCCC(=O)O
measured_property: ΔΔG to 1 (kcal/mol)

>>> reading("CCC[C@H](NC(=O)[C@H](N)CCCCN)C(=O)N[C@@H](Cc1ccc([N+](=O)[O-])cc1)C(=O)NC(Cc1cscn1)C(=O)N[C@@H](COP(=O)(O)O)C(=O)N[C@@H](Cc1ccc(O)cc1)C(=O)N[C@@H](CO)CC(=O)NCCC(=O)N[C@@H](Cc1ccc([N+](=O)[O-])cc1)C(=O)N[C@@H](CCCCN)C(N)=O (stereo partly drawn) [4a] (H-[dK][Nva][Phe(4-NO2)][ξAla(4-thiazolyl)][pS]Y[β3hS][βAla][Phe(4-NO2)]K-NH2; N-terminus and C-terminus assumed)")
-0.2
>>> reading("CCC[C@H](NC(=O)[C@H](N)CCCCN)C(=O)N[C@@H](Cc1ccc([N+](=O)[O-])cc1)C(=O)NC(Cc1cscn1)C(=O)N[C@@H](COP(=O)(O)O)C(=O)N[C@@H](Cc1ccc([N+](=O)[O-])cc1)C(=O)N[C@@H](CO)CC(=O)NCCC(=O)N[C@@H](C)C(=O)N[C@@H](CCCCN)C(N)=O (stereo partly drawn) [5c] (H-[dK][Nva][Phe(4-NO2)][ξAla(4-thiazolyl)][pS][Phe(4-NO2)][β3hS][βAla]AK-NH2; N-terminus and C-terminus assumed)")
2.2
>>> reading("CCC[C@H](NC(=O)[C@H](N)CCCCN)C(=O)N[C@@H](Cc1ccc([N+](=O)[O-])cc1)C(=O)NC(Cc1cscn1)C(=O)N[C@@H](COP(=O)(O)O)C(=O)N[C@@H](Cc1ccccc1)C(=O)N[C@@H](CO)CC(=O)NCCC(=O)N[C@@H](Cc1ccc([N+](=O)[O-])cc1)C(=O)N[C@@H](CCCCN)C(N)=O (stereo partly drawn) [4b] (H-[dK][Nva][Phe(4-NO2)][ξAla(4-thiazolyl)][pS]F[β3hS][βAla][Phe(4-NO2)]K-NH2; N-terminus and C-terminus assumed)")
-0.1
